log10 of solubility kinetic overview
Experiment: Aqueous solubility in PBS buffer at pH 7.4
Assay type: physicochemical
TEST READOUT: log10 of solubility kinetic (log10 of the value in µM)

[[record]]
smi = "COc1cc(NC(=O)Cn2ccc3cc(F)c(-c4cnn(C)c4)cc32)cc(OC)c1OC"
recorded_number = 0.43

[[record]]
smi = "Cn1cc(-c2ccc3ccn(CC(=O)Nc4ccccc4Cl)c3c2)cn1"
recorded_number = 0.61

[[record]]
smi = "Cn1cc(-c2ccc3c(C#N)cn(CC(=O)Nc4ccccc4Cl)c3c2)cn1"
recorded_number = 0.69

[[record]]
smi = "Cc1nnc(-c2ccc3ccn(CC(=O)Nc4cccnc4Cl)c3c2)o1"
recorded_number = 1.86

[[record]]
smi = "COc1cc(NC(=O)Cn2ccc3ccc(-c4nnc(C)o4)cc32)cc(OC)c1OC"
recorded_number = 0.71

[[record]]
smi = "COc1cc(NC(=O)Cn2ccc3ccc(-c4cnn(C)c4)cc32)cc(OC)c1OC"
recorded_number = 0.66

[[record]]
smi = "COc1cc(NC(=O)Cn2ccc3ccc(-c4cn(C)nc4C)cc32)cc(OC)c1OC"
recorded_number = 0.93

[[record]]
smi = "COc1cc(NC(=O)Cn2cc(Cl)c3cc(F)c(-c4cn(C)nc4C)cc32)cc(OC)c1OC"
recorded_number = 0.40

[[record]]
smi = "Cc1nnc(-c2ccc3ccn(CC(=O)Nc4ccccc4Cl)c3c2)o1"
recorded_number = 1.04

[[record]]
smi = "COc1cc(NC(=O)Cn2cc(Cl)c3ccc(-c4cnn(C)c4)cc32)cc(OC)c1OC"
recorded_number = 0.40

[[record]]
smi = "Cn1cc(-c2ccc3ccn(CC(=O)Nc4ccccc4Cl)c3c2)c(C(F)(F)F)n1"
recorded_number = 0.40

[[record]]
smi = "Cn1cc(-c2ccc3ccn(CC(=O)Nc4ccccc4Cl)c3n2)cn1"
recorded_number = 0.40

